System: L929 cells
Assay: TNF-α-induced cytotoxicity in L929 cells (MTT assay)
Assay type: cell-based
Condition Notes: Mus musculus, L929; 1 µM; 1 ng/mL TNF-α, 44 h; mean ± S.E.M. (n = 4); read-out: Inhibition (%) of TNF-α-induced cytotoxicity
Listing of entries alongside the reported inhibition at 1 µM.
API: value field is a number in %; no unit string.

CCC(C)C(=O)OC1C2(OC(C)=O)CC3(O)C4=CC(=O)OC(c5ccoc5)C4(C)CCC3C(C)(C2=O)C(CC(=O)OC)C1(C)C (centres unmarked) [compound 10, Carapanolide C]    4.9

# input molecule: CC(=O)O[C@@H]1[C@H](O)C2C(C)(C)C(=O)C=C[C@]2(C)C2CC[C@@]3(C)[C@H](c4ccoc4)OC(=O)[C@H]4O[C@]43[C@@]21C (stereo partly drawn) [compound 6, 6α-hydroxygedunin] ; wanted: its inhibition at 1 µM
8.1

CC(=O)O[C@@H]1C2C(C)(C)C(=O)C=C[C@]2(C)C2CC[C@@]3(C)[C@H](c4ccoc4)OC(=O)[C@H]4O[C@]43[C@]2(C)[C@@H]1OC(C)=O (stereo partly drawn) [compound 2, 6α-acetoxygedunin] , same question.
10.9

Record: CC(=O)O[C@@H]1C2C(C)(C)C(=O)C=C[C@]2(C)C2CC[C@@]3(C)[C@H](c4ccoc4)OC(=O)[C@H]4O[C@]43[C@]2(C)[C@@H]1O (some centres unmarked) [compound 5, andirolide H]
-6.6

Now the molecule CC(=O)O[C@@H]1C[C@H]2C(C)(C)C(=O)C=C[C@]2(C)[C@H]2CC[C@@]3(C)[C@H](c4ccoc4)OC(=O)[C@H]4O[C@]43[C@@]21C [compound 1, gedunin]
4.5
